Subject Of Test: Flt-3 (baculovirus expressed human Flt-3 kinase domain R571-S993) (Homo sapiens)
Construct: human Flt-3 kinase domain R571-S993; host or cells: baculovirus expression
Sequence (P36888 571-993): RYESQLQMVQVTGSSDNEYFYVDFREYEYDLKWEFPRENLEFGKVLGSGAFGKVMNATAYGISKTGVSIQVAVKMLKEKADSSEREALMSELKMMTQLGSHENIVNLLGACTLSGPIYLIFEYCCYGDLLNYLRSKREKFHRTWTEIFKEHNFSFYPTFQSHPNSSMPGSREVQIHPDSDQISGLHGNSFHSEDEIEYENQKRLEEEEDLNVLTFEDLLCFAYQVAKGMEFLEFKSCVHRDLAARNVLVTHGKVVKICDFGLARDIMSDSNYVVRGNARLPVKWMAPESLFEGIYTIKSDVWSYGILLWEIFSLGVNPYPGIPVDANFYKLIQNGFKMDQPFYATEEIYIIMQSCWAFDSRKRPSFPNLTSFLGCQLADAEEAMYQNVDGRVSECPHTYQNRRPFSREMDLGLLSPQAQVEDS
Protocol Summary: biochemical;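 also: Luciferase-coupled chemiluminescent kinase assay, activity read as percent ATP left after a 3 h reaction at room temperature, ATP near KM, 10-point dose-response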
Assay Context: read-out: flt3 IC50
Quantity Measured: IC50

Record excerpt, results attached:
# Molecule, Subject Of Test, Quantity Measured, Observed Value
records = [
    ("CCN(CC)CCOc1cc2nccc(Oc3ccc(NC(=O)C4(C(=O)Nc5ccc(F)cc5)[C@H](C)[C@H]4C)cc3F)c2cc1OC (stereo partly drawn) [Example 391]", "Flt-3 (baculovirus expressed human Flt-3 kinase domain R571-S993) (Homo sapiens)", "IC50", "50 to 500 nM"),
    ("COc1cc2nccc(Oc3ncc(NC(=O)C(C)(C)C(=O)Nc4ccc(F)cc4)cc3Cl)c2cc1OC [Example 292]", "Flt-3 (baculovirus expressed human Flt-3 kinase domain R571-S993) (Homo sapiens)", "IC50", "< 50 nM"),
]

Return IC50 for the following molecule: COc1cc2c(Oc3ccc(NC(=O)C4(C(=O)Nc5ccc(F)cc5)CC4)cc3F)ccnc2cc1OCCCN1CCN(C(C)=O)CC1 [Example 350]
< 50 nM

Return IC50 for the following molecule: COc1cc2c(Oc3ccc(NC(=O)C4(C(=O)Nc5ccc(F)cc5)[C@H](C)[C@H]4C)cc3F)ccnc2cc1OCCCN1CCOCC1 (stereo partly drawn) [Example 370]
50 to 500 nM

Return IC50 for the following molecule: COc1cc2c(Oc3ccc(NC(=O)C4(C(=O)Nc5ccc(F)cc5)CC4)cc3)ccnc2cc1OCCCN1CCOCC1 [Example 335]
< 50 nM

Return IC50 for the following molecule: COc1cc2c(Oc3ccc(NC(=O)C4(C(=O)Nc5ccc(F)cc5)CC4)c(C)n3)ccnc2cc1OCCCN1CCOCC1 [Example 318]
50 to 500 nM
